Listed below: pIC50 values for each entry.
- measured.on: Human V1b receptor (Homo sapiens (Human))
- procedure.text: Binding Test for V1b Receptor ([3H]AVP, crude membrane preparation of 293FT cells)
- details: inhibition of [3H]AVP binding (0.4 to 1 nmol/L), room temperature, 60 minutes
pIC50: −log10 of the molar value.

| molecule | result |
| --- | --- |
| COc1cc(-c2nc(-c3ccc(CCN4CC(F)C4)cc3)cn2CC(=O)NC(C)C)ccc1F [Example A-19] | 7.00 to 8.00 |
| COc1cc(-c2nc(-c3ccc(CCN4CCC(OC)C4)cc3)cn2CC(=O)NC(C)C)ccc1F (stereo not drawn) [Example A-17] | 7.00 to 8.00 |

Here is the next item to consider.
For the molecule COc1cccc(-n2c(CC(=O)NC(C)(C)C)nn(-c3ccc(CCN4CCOCC4)cn3)c2=O)c1 [Example D-08] , report pIC50. 7.00 to 8.00

###

Listed below: IC50 values for each entry.
- measured.on: Human V1b receptor (Homo sapiens (Human), UniProt P47901)
- Sequence (P47901 whole entry): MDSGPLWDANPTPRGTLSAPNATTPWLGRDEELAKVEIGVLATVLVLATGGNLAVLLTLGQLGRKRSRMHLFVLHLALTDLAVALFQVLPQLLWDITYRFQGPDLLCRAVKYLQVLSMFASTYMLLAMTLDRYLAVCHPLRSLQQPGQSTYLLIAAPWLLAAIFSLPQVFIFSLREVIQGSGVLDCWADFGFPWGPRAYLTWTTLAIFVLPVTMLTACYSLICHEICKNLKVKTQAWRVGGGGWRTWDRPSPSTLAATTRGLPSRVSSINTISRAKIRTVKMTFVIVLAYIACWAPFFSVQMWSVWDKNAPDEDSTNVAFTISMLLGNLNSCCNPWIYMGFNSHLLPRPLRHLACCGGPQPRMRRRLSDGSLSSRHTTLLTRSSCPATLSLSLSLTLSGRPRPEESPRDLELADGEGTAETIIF
- procedure.text: Binding Test for V1b Receptor ([3H]AVP, crude membrane preparation of 293FT cells)
- details: inhibition of [3H]AVP binding (0.4 to 1 nmol/L), room temperature, 60 minutes

Completed entries (count: 2):
| compound | IC50 |
| --- | --- |
| CCC1COCCN1CCc1ccc(-n2nc(CC(=O)NC(C)C)n(-c3cccc(Cl)c3)c2=O)cc1 (stereo not drawn) | 10 to 100 nM |
| COc1cccc(-c2nc(-c3ccc(CCN4CCC(F)(F)CC4)cc3)nn2CC(=O)NC(C)C)c1 | 10 to 100 nM |

State IC50 (Human V1b receptor (Homo sapiens (Human), UniProt P47901)) of `COc1cccc(-c2nc(-c3ccc(CCN4CCC(C(N)=O)CC4)cc3)nn2CC(=O)NC(C)C)c1` . 100 to 1000 nM

###

Listed below: pIC50 values for each entry.
- measured.on: Human V1b receptor (Homo sapiens (Human))
- procedure.text: Binding Test for V1b Receptor ([3H]AVP, crude membrane preparation of 293FT cells)
- details: inhibition of [3H]AVP binding (0.4 to 1 nmol/L), room temperature, 60 minutes
pIC50: −log10 of the molar value.

Completed entries (count: 5):
| compound | measured.on | result |
| --- | --- | --- |
| COc1cccc(-c2nc(-c3ccc(CCN4C(C)COCC4C)cc3)nn2CC(=O)NC(C)C)c1 (centres unmarked) | Human V1b receptor (Homo sapiens (Human)) | 7.00 to 8.00 |
| Cc1c(-c2cccc(Cl)c2)n(CC(=O)NC(C)C)c(=O)n1-c1ccc(CCN2CCOCC2)cc1 | Human V1b receptor (Homo sapiens (Human)) | 7.00 to 8.00 |
| COc1cc(-c2nc(-c3ccc(CCN4CC(C#N)C4)cc3)cn2CC(=O)NC(C)C)ccc1F | Human V1b receptor (Homo sapiens (Human)) | 6.00 to 7.00 |
| CC(C)NC(=O)Cc1nn(-c2ccc(CCN3C4CCC3COC4)cc2F)c(=O)n1-c1cccc(Cl)c1 | Human V1b receptor (Homo sapiens (Human)) | 7.00 to 8.00 |
| COc1cccc(-c2nc(-c3ccc(CCN4CCCC4)cc3)nn2CC(=O)NC(C)C)c1 | Human V1b receptor (Homo sapiens (Human)) | 7.00 to 8.00 |

For the compound `COc1cccc(-c2nc(-c3ccc(CCN4C5CCC4COC5)cc3)nn2CC(=O)NC(C)C)c1` , report pIC50. 8.85

For the compound `CC(C)NC(=O)Cc1nn(-c2ccc(CCN3CCC(C)(O)CC3)cc2)c(=O)n1-c1cccc(Cl)c1` , report pIC50. 6.00 to 7.00

For the compound `COc1cc(-n2c(CC(=O)NC(C)(C)C)nn(-c3ccc(CCN4CCOCC4)cn3)c2=O)ccc1F` , report pIC50. 7.00 to 8.00

For the compound `CC(C)NC(=O)Cn1nc(-c2ccc(CCN3CCOCC3)cn2)nc1-c1cccc(Cl)c1` , report pIC50. 7.92

For the compound `COc1cccc(-c2nc(-c3ccc(CCN4CCOCC4)cc3F)nn2CC(=O)NC(C)C)c1` , report pIC50. 8.14

For the compound CC(C)NC(=O)Cn1cc(-c2ccc(CCN3CCCC(O)C3)cc2)nc1-c1cccc(Cl)c1 (centres unmarked) , report pIC50. 7.00 to 8.00

###

- measured.on: Human V1b receptor (Homo sapiens (Human), UniProt P47901)
- procedure.text: Binding Test for V1b Receptor ([3H]AVP, crude membrane preparation of 293FT cells)
- details: inhibition of [3H]AVP binding (0.4 to 1 nmol/L), room temperature, 60 minutes
assay.readout: IC50

Completed entries (count: 5):
| molecule | measured.on | IC50 |
| --- | --- | --- |
| COc1cc(-c2nc(-c3ccc(CCN4CCCC(C#N)C4)cc3)cn2CC(=O)NC(C)C)ccc1F (centres unmarked) | Human V1b receptor (Homo sapiens (Human), UniProt P47901) | 10 to 100 nM |
| CC(C)NC(=O)Cc1nn(-c2ccc(CCN3CCC4CCCCC4C3)cc2)c(=O)n1-c1cccc(Cl)c1 (centres unmarked) | Human V1b receptor (Homo sapiens (Human), UniProt P47901) | 100 to 1000 nM |
| CC(C)NC(=O)Cn1cc(N2CCN(CCN3CCOCC3)CC2=O)nc1-c1cccc(Cl)c1 | Human V1b receptor (Homo sapiens (Human), UniProt P47901) | 100 to 1000 nM |
| CC(C)NC(=O)Cc1nn(-c2ccc(CCN3CCCCC3)cc2)c(=O)n1-c1cccc(Cl)c1 | Human V1b receptor (Homo sapiens (Human), UniProt P47901) | 10 to 100 nM |
| COc1cccc(-c2nc(-c3ccc(CCN4CCC(C)CC4)cc3)nn2CC(=O)NC(C)C)c1 | Human V1b receptor (Homo sapiens (Human), UniProt P47901) | 10 to 100 nM |

For the molecule `COc1cccc(-c2nc(-c3ccc(CCN4CCC(NC(C)=O)CC4)cc3)nn2CC(=O)NC(C)C)c1` , report IC50. 100 to 1000 nM

For the molecule `COc1cccc(-c2nc(-c3ccc(CCN4CCSCC4)cc3)nn2CC(=O)NC(C)C)c1` , report IC50. < 10 nM

For the molecule `CC(C)NC(=O)Cn1cc(-c2cccc(OCCN3CCCCC3)c2)nc1-c1cccc(Cl)c1` , report IC50. 100 to 1000 nM

###

- measured.on: UniProt P47901
- procedure.text: Binding Test for V1b Receptor ([3H]AVP, crude membrane preparation of 293FT cells)
- details: inhibition of [3H]AVP binding (0.4 to 1 nmol/L), room temperature, 60 minutes
pIC50: −log10 of the molar value.
Please mark YES if the recorded pIC50 is equal to or greater than 8, and NO if it falls below.

Answer whether pIC50 of CC(C)NC(=O)Cn1cc(-c2ccc(CCN3CCC(CO)C3)cc2)nc1-c1cccc(Cl)c1 (stereo not drawn) is greater than or equal to 8. NO

Answer whether pIC50 of `CC(C)(C)NC(=O)Cn1nc(-c2ccc(CCN3CCOCC3)cn2)nc1-c1cccc(Cl)c1` is greater than or equal to 8. YES

Answer whether pIC50 of `CC(C)(C)NC(=O)Cn1nc(-c2ccc(CCN3C4CCC3COC4)cn2)nc1-c1cccc(Cl)c1` is greater than or equal to 8. YES

Answer whether pIC50 of `CC(C)NC(=O)Cn1nc(-c2ccc(CCN3CCOCC3)cc2)nc1-c1cccc(Cl)c1` is greater than or equal to 8. YES

Answer whether pIC50 of `CC(C)(C)NC(=O)Cc1nn(-c2ccc(CCN3CCOCC3)cc2)c(=O)n1-c1cccc(Cl)c1` is greater than or equal to 8. YES

Answer whether pIC50 of `CC(C)NC(=O)Cn1cc(-c2ccc(CCN3CCOCC3)nc2)nc1-c1cccc(Cl)c1` is greater than or equal to 8. NO

Answer whether pIC50 of `CC(C)NC(=O)Cn1cc(-c2ccc(CCN3C4CCC3COC4)cn2)nc1-c1cccc(Cl)c1` is greater than or equal to 8. YES

###

- measured.on: Human V1b receptor (Homo sapiens (Human), UniProt P47901)
- procedure.text: Binding Test for V1b Receptor ([3H]AVP, crude membrane preparation of 293FT cells)
- details: inhibition of [3H]AVP binding (0.4 to 1 nmol/L), room temperature, 60 minutes
Listed below: IC50 values for each entry.

For the molecule COc1cccc(-c2nc(-c3ccc(CCN4CCC5CCCCC5C4)cc3)nn2CC(=O)NC(C)C)c1 (centres unmarked) , report IC50. 10 to 100 nM

For the molecule `CC(C)NC(=O)Cn1nc(-c2ccc(CN3CCN(C)CC3)cc2)nc1-c1cccc(Cl)c1` , report IC50. 100 to 1000 nM

For the molecule `CC(C)NC(=O)Cc1nc(-c2cccc(CCN3CCOCC3)c2)sc1-c1cccc(Cl)c1` , report IC50. 100 to 1000 nM

For the molecule `CC(C)NC(=O)Cc1nn(-c2ccc(CCN3C4CCC3COC4)cn2)c(=O)n1-c1ccc(F)c(Cl)c1` , report IC50. 10 to 100 nM

For the molecule `CC(C)(C)NC(=O)Cc1nn(-c2ccc(CCN3C4CCC3COC4)cn2)c(=O)n1-c1cccc(Cl)c1` , report IC50. 10 to 100 nM
